Target: PDGFR β enzyme (Homo sapiens)
Construct: purchased Invitrogen P3082
Sequence (P09619 33-1106): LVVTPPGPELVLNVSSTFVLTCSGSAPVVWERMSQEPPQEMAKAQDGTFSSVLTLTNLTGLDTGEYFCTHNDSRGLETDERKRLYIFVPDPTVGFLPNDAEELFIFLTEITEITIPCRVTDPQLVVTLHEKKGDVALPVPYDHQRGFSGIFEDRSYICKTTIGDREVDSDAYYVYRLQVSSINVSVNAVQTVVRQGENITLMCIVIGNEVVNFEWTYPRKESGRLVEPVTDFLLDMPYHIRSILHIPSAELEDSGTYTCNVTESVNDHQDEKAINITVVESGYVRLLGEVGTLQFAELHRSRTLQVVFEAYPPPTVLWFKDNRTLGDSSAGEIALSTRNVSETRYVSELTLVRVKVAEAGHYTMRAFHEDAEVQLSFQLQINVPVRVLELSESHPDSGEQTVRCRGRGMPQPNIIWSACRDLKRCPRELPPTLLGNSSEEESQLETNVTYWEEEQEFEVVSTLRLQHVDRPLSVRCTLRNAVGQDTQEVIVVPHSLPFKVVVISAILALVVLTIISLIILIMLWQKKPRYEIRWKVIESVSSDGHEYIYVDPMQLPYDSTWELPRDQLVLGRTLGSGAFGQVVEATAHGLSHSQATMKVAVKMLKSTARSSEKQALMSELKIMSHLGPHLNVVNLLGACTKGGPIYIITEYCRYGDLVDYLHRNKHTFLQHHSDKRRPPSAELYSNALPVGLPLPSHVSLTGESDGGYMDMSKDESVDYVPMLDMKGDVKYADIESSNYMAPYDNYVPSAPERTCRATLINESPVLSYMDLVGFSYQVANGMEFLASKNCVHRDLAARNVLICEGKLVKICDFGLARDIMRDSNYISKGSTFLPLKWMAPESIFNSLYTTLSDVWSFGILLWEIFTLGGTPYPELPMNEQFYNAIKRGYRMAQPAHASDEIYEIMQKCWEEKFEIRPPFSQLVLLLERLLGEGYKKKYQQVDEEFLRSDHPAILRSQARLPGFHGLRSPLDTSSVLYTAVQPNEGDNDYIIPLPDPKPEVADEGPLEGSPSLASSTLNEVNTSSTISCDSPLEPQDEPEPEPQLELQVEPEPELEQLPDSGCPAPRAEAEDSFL
Assay: Inhibitory activity to PDGFR β enzyme, HTRF kinEASE TK kit
Type: biochemical
Conditions: 1 μM; read-out: Inhibition rate % (PDGFR β)
ASSAY ENDPOINT: inhibition at 1 µM (%)

>>> df
                                   compound                target_of_assay      assay_endpoint  number
0  c1cnc2ccc(Nc3nc(OC4CCCC4)c4nc[nH]c4n3)cc2c1 [MED1007-35]  PDGFR β enzyme (Homo sapiens)  inhibition at 1 µM    54.8
1  COc1cccc(-c2ccnc3ccc(Nc4nc(NC5CC5)c5nc[nH]c5n4)cc23)c1 [MED1007-61]  PDGFR β enzyme (Homo sapiens)  inhibition at 1 µM    4.72
2  CC(C)Oc1nc(Nc2ccc3ncccc3c2)nc2[nH]cnc12 [MED1007-34]  PDGFR β enzyme (Homo sapiens)  inhibition at 1 µM    53.8
3  COCCNc1nc(Nc2ccc3nccc(-c4ccccc4)c3c2)nc2[nH]cnc12 [MED1007-68]  PDGFR β enzyme (Homo sapiens)  inhibition at 1 µM    18.7
4  COc1ccc(-c2ccnc3ccc(Nc4nc(NC5CC5)c5nc[nH]c5n4)cc23)cc1 [MED1007-63]  PDGFR β enzyme (Homo sapiens)  inhibition at 1 µM   -0.31
5  Fc1cccc(-c2ccnc3ccc(Nc4nc(NC5CC5)c5nc[nH]c5n4)cc23)c1 [MED1007-64]  PDGFR β enzyme (Homo sapiens)  inhibition at 1 µM   -3.26
6  c1cnc2ccc(Nc3nc(NC4CC4)c4nc[nH]c4n3)cc2c1 [XC-302, reference compound]  PDGFR β enzyme (Homo sapiens)  inhibition at 1 µM    51.1
7  c1cc(N2CCOCC2)c2cc(Nc3nc(NC4CC4)c4nc[nH]c4n3)ccc2n1 [MED1007-32]  PDGFR β enzyme (Homo sapiens)  inhibition at 1 µM    9.16

----------
Target: PI3K α (Homo sapiens, UniProt P42336)
Construct: purchased Millipore 14-602
Sequence (P42336 whole entry): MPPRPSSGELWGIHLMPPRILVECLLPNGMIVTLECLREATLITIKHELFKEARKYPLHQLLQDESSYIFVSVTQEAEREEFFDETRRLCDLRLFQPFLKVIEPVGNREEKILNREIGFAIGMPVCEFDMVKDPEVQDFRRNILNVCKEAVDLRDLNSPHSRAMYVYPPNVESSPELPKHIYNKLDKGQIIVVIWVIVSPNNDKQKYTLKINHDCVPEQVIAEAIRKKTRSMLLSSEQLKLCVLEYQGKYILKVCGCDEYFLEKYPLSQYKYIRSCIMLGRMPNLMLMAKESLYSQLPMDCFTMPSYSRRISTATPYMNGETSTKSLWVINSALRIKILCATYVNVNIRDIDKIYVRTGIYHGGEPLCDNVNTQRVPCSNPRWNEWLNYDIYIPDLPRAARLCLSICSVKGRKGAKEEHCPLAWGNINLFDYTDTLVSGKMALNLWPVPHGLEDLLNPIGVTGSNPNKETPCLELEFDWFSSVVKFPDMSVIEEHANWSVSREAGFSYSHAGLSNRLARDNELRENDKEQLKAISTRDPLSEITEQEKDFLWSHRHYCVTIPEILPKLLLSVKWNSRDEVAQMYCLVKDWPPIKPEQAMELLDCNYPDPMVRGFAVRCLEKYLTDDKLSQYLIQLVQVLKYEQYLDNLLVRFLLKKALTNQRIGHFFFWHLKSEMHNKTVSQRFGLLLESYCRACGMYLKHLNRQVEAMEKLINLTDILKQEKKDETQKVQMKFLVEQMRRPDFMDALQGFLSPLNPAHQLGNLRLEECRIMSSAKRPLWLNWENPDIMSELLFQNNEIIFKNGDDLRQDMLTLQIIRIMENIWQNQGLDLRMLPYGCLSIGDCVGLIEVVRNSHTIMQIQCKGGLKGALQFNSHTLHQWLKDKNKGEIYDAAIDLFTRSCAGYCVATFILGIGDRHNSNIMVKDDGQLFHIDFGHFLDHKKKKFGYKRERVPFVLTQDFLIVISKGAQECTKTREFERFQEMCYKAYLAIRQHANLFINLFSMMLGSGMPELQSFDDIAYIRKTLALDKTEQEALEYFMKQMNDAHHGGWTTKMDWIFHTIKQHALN
Sequence (P27986 whole entry partner): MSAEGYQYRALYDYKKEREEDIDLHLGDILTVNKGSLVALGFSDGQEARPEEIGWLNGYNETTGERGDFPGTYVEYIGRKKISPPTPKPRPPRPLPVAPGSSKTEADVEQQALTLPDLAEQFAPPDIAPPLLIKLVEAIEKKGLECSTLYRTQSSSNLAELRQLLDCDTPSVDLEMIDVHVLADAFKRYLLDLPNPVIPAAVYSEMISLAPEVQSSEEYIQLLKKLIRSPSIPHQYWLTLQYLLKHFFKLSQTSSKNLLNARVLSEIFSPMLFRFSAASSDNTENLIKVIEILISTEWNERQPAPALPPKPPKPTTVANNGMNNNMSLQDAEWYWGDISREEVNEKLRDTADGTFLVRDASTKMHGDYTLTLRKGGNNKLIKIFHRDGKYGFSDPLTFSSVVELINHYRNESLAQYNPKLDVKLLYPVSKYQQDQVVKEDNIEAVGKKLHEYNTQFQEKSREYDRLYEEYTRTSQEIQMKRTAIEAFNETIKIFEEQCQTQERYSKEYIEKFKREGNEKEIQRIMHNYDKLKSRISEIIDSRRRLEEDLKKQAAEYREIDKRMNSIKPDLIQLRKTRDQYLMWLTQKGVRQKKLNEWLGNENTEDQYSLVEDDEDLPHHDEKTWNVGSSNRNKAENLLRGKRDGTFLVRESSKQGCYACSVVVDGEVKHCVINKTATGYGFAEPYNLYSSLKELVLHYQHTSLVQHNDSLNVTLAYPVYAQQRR
Assay: Inhibitory activity to PI3K α, PI 3-Kinase (human) HTRF Assay kit
Type: biochemical
Conditions: 10 μM; read-out: % Inhibition Rate to PI3K α
Hi, to clarify the labels: y covers inhibition at 10 µM from 80% upward, n covers anything below 80%.

                                    molecule  group
 0  COc1ccc(-c2ccnc3ccc(Nc4nc(NC5CC5)c5nc[nH]c5n4)cc23)cc1OC      y
 1  CSc1cccc(-c2ccnc3ccc(Nc4nc(NC5CC5)c5nc[nH]c5n4)cc23)c1      y
 2  CCOc1cccc(-c2ccnc3ccc(Nc4nc(NC5CC5)c5nc[nH]c5n4)cc23)c1      y
 3  COc1cccc(-c2ccnc3ccc(Nc4nc(NC5CCC5)c5nc[nH]c5n4)cc23)c1      n
 4  COC[C@H]1OC(=O)c2coc3c2[C@@]1(C)C1=C(C3=O)[C@@H]2CCC(=O)[C@@]2(C)C[C@H]1OC(C)=O [Wortmannin, reference compound]      y
 5  c1ccc(-c2ccnc3ccc(Nc4nc(NC5CCC5)c5nc[nH]c5n4)cc23)cc1      n
 6  COCCNc1nc(Nc2ccc3nccc(-c4ccccc4)c3c2)nc2[nH]cnc12      n
 7  c1ccc(-c2ccnc3ccc(Nc4nc(OC5CCCCC5)c5nc[nH]c5n4)cc23)cc1      n
 8  COCCCNc1nc(Nc2ccc3nccc(-c4ccccc4)c3c2)nc2[nH]cnc12      n
 9   CC(C)Oc1nc(Nc2ccc3ncccc3c2)nc2[nH]cnc12      y
10  c1ccc(-c2ccnc3ccc(Nc4nc(NC5CC5)c5nc[nH]c5n4)cc23)cc1 [MED1007-91, dihydrate di-methanesulfonate]      y
11  COc1ccccc1-c1ccnc2ccc(Nc3nc(NC4CC4)c4nc[nH]c4n3)cc12      n
12  c1cc(-c2ccc3c(c2)OCO3)c2cc(Nc3nc(NC4CC4)c4nc[nH]c4n3)ccc2n1      y
13  NCCNc1nc(Nc2ccc3nccc(-c4ccccc4)c3c2)nc2[nH]cnc12      n
